Test system: human SMAD7 mRNA
assay.name: Dose-dependent inhibition of human SMAD7 mRNA expression in Hep3B cells (Example 3, Study 1 and 2)
Type: cell-based
test.context: 2220 nM, electroporation, approximately 16 hours, Study 2
Experimental: The antisense oligonucleotides were tested in a series of experiments that had similar culture conditions as described below. Cells were plated at a density of 20,000 cells per well and transfected using electroporation with 0.31 μM, 1.25 μM, 5.00 μM, or 20.00 μM concentrations of antisense oligonucleotide, as specified in the Tables below. […] After a treatment period of approximately 16 hours, RNA was isolated from the cells and SMAD7 mRNA levels were measured by quantitative real-time PCR. […]
Strand notation (5' to 3'): a small letter for the sugar, then the base; units joined by * are phosphorothioate-linked, units joined directly phosphodiester-linked; [ ] holds rarer units or linkages, { } end groups; capitals alone tell only the bases. k = constrained ethyl (cEt); [5mC] = 5-methylcytosine; d = 2'-deoxy (DNA)
Please respond with reported % inhibition of SMAD7 mRNA expression for every item in the list.
Numbers only, in %.

[
  {
    "substance": "799631 (k[5mC]*k[5mC]*kA*dA*dA*dT*d[5mC]*dA*d[5mC]*dA*dA*dA*dG*k[5mC]*kA*kG; antisense) [compound 799631]",
    "measured.on": "human SMAD7 mRNA",
    "% inhibition of SMAD7 mRNA expression (%)": 25
  },
  {
    "substance": "799577 (kT*kT*k[5mC]*d[5mC]*dG*dA*dA*dA*dG*dG*dA*d[5mC]*d[5mC]*k[5mC]*kT*kT; antisense) [compound 799577]",
    "measured.on": "human SMAD7 mRNA",
    "% inhibition of SMAD7 mRNA expression (%)": 64
  }
]

Next, consider the following substance.
I'd like to know its % inhibition of SMAD7 mRNA expression. The substance in question is 799743 (antisense k[5mC]*kT*kG*dG*dA*dG*dT*dT*dA*dT*dT*d[5mC]*dT*k[5mC]*kA*kA) [compound 799743]
43

---

System: human SMAD7 mRNA
assay.name: Antisense inhibition of human SMAD7 mRNA expression in Hep3B cells by 5-10-5 MOE gapmers, single concentration, electroporation, RT-PCR (Example 1, Study 1 and 2)
Type: cell-based
test.context: Study 2, electroporation with 15,000 nM antisense oligonucleotide, 5-10-5 MOE gapmers targeting SEQ ID NO: 1 and 2
Strand notation (5' to 3'): a small letter for the sugar, then the base; units joined by * are phosphorothioate-linked, units joined directly phosphodiester-linked; [ ] holds rarer units or linkages, { } end groups; capitals alone tell only the bases. e = 2'-O-(2-methoxyethyl) (MOE); [5mC] = 5-methylcytosine; d = 2'-deoxy (DNA)
Please respond with reported % Inhibition for every item in the list.
Answers are plain numbers, in %.

Consider the reported % Inhibition for these substances:
[
  {
    "substance": "771758 (antisense eA*eT*eT*eA*e[5mC]*d[5mC]*dA*dG*dT*d[5mC]*d[5mC]*d[5mC]*d[5mC]*d[5mC]*dA*eT*eT*eA*e[5mC]*eG) [compound 771758]",
    "unit.name": "%",
    "% Inhibition": 0
  },
  {
    "substance": "771764 (antisense eA*e[5mC]*eA*e[5mC]*eT*dT*d[5mC]*dA*d[5mC]*dA*d[5mC]*dA*d[5mC]*d[5mC]*dA*eA*eA*eG*e[5mC]*eA) [compound 771764]",
    "unit.name": "%",
    "% Inhibition": 20
  },
  {
    "substance": "771766 (antisense e[5mC]*eT*eG*eA*eA*dG*d[5mC]*d[5mC]*d[5mC]*d[5mC]*d[5mC]*d[5mC]*dA*dA*dG*e[5mC]*e[5mC]*eA*eG*eG) [compound 771766]",
    "unit.name": "%",
    "% Inhibition": 5
  },
  {
    "substance": "771844 (antisense eG*eA*eA*eG*eG*dA*d[5mC]*d[5mC]*dA*dA*dG*dT*d[5mC]*d[5mC]*d[5mC]*eT*e[5mC]*eT*e[5mC]*e[5mC]) [compound 771844]",
    "unit.name": "%",
    "% Inhibition": 0
  },
  {
    "substance": "771771 (antisense e[5mC]*eA*eG*e[5mC]*eT*d[5mC]*d[5mC]*dT*dA*d[5mC]*dT*dG*dT*dT*dG*eG*e[5mC]*eA*eG*eT) [compound 771771]",
    "unit.name": "%",
    "% Inhibition": 22
  }
]

Count: 4. Required value per item: % Inhibition.
1. 771423 (eG*e[5mC]*eA*eG*e[5mC]*dA*dT*d[5mC]*d[5mC]*dA*dG*d[5mC]*d[5mC]*d[5mC]*dT*eG*e[5mC]*e[5mC]*e[5mC]*eG; antisense) [compound 771423]
2. 483663 (antisense e[5mC]*eA*eG*e[5mC]*e[5mC]*dT*d[5mC]*dT*dT*dG*dA*d[5mC]*dT*dT*d[5mC]*e[5mC]*eG*eA*eG*eG) [compound 483663]
3. 771943 (antisense eG*eT*eA*eT*eT*dT*dG*dT*dT*dA*dA*d[5mC]*dA*dA*dA*eA*eA*eT*eG*eG) [compound 771943]
4. 771870 (antisense eA*eG*eG*e[5mC]*eA*d[5mC]*dA*dA*dG*dT*d[5mC]*dA*dA*dG*dG*eA*eG*eG*e[5mC]*e[5mC]) [compound 771870]

1: 39; 2: 56; 3: 0; 4: 15

Count: 2. Required value per item: % Inhibition.
1. 771719 (antisense eA*e[5mC]*eT*eG*eA*d[5mC]*dT*dT*dG*d[5mC]*dA*dG*dG*dT*dG*eA*e[5mC]*eT*eG*eG) [compound 771719]
2. 771405 (antisense eA*eG*e[5mC]*eG*eA*dA*d[5mC]*dA*dT*dG*dA*d[5mC]*d[5mC]*dT*d[5mC]*e[5mC]*eG*e[5mC]*eA*e[5mC]) [compound 771405]

1: 35; 2: 25

---

Tested on: human peripheral blood mononuclear cells (PBMCs)
assay.name: Human PBMC activation assay, cytokine levels (IL-10, IL-6, MCP-1, TNF-α) in supernatant after 24 hours (Example 9)
test.context: human PBMC supernatant after 24 hours; 0.0128 μM oligonucleotide
value.type: Levels of MCP-1 (pg/mL)
One number for each entry, in pg/mL.

[
  {
    "substance": "736697 (antisense GTCGCCCCTTCTCCCCGCAGC; chemistry not fully specified) [compound 736697]",
    "Levels of MCP-1, pg/mL": 297.6
  },
  {
    "substance": "830025 (antisense TTTGTAAATCGAAAGC; 3-10-3 cEt gapmer, further chemistry not given here) [compound 830025]",
    "Levels of MCP-1, pg/mL": 309.7
  },
  {
    "substance": "790615 (CCAATGAGAATGCTTC; 3-10-3 cEt gapmer, further chemistry not given here) [compound 790615]",
    "Levels of MCP-1, pg/mL": 329.5
  },
  {
    "substance": "830037 (antisense CTATTGGCTGATCTGG; 3-10-3 cEt gapmer, further chemistry not given here) [compound 830037]",
    "Levels of MCP-1, pg/mL": 369.4
  },
  {
    "substance": "830121 (AGAATCAAGCCCTGGC; 3-10-3 cEt gapmer, further chemistry not given here) [compound 830121]",
    "Levels of MCP-1, pg/mL": 324.5
  },
  {
    "substance": "798781 (CGTAAGATTCACAGCA; 3-10-3 cEt gapmer, further chemistry not given here) [compound 798781]",
    "Levels of MCP-1, pg/mL": 332.9
  }
]

I'd like to know its Levels of MCP-1. The substance in question is 829994 (GGAGGCAGGGCCGCGA; 3-10-3 cEt gapmer, further chemistry not given here) [compound 829994]
299.8

---

Please respond with reported IC50 for every item in the list.
Tested on: human SMAD7 mRNA
assay.name: Dose-dependent inhibition of human SMAD7 mRNA expression in Hep3B cells (Example 3, Study 1 and 2)
Assay type: cell-based
test.context: electroporation, Study 2 (740-20000 nM)
Strand notation (5' to 3'): a small letter for the sugar, then the base; units joined by * are phosphorothioate-linked, units joined directly phosphodiester-linked; [ ] holds rarer units or linkages, { } end groups; capitals alone tell only the bases. k = constrained ethyl (cEt); [5mC] = 5-methylcytosine; d = 2'-deoxy (DNA)
Answers are plain numbers, in nM.

Consider the reported IC50 for these substances:
[
  {
    "substance": "830095 (kT*kG*kA*dG*dT*dA*dA*dA*d[5mC]*dA*dA*dT*dA*k[5mC]*k[5mC]*k[5mC]; antisense) [compound 830095]",
    "measured.on": "human SMAD7 mRNA",
    "IC50, nM": 2000
  },
  {
    "substance": "799471 (antisense k[5mC]*kA*k[5mC]*dA*dG*dA*dA*dA*dA*dG*d[5mC]*dT*d[5mC]*k[5mC]*kG*k[5mC]) [compound 799471]",
    "measured.on": "human SMAD7 mRNA",
    "IC50, nM": 5000
  },
  {
    "substance": "799711 (antisense kG*kG*kT*d[5mC]*dA*dA*dA*d[5mC]*dT*dT*dG*dT*dG*kG*kT*kA) [compound 799711]",
    "measured.on": "human SMAD7 mRNA",
    "IC50, nM": 5000
  },
  {
    "substance": "830137 (antisense kA*kT*kG*dA*dA*dA*dG*dT*dA*d[5mC]*dA*dA*dT*k[5mC]*kT*k[5mC]) [compound 830137]",
    "measured.on": "human SMAD7 mRNA",
    "IC50, nM": 3000
  }
]

Next, consider the following substance.
I'd like to know its IC50. The substance in question is 800109 (antisense kA*k[5mC]*kA*dG*d[5mC]*d[5mC]*dA*d[5mC]*dA*dA*dG*dT*d[5mC]*kA*k[5mC]*kA) [compound 800109]
1000

These measurements were taken from patent US10517889B2.
